test_target: T1, human VEGFA165 (human, UniProt P15692-4 27-191)
T1 construct: Bought protein from two suppliers, treated as one molecule; the supplier is named under assay; also called antigen VEGFA
T1 sequence (P15692 other isoform, or with tags, fused parts or gaps limits assumed): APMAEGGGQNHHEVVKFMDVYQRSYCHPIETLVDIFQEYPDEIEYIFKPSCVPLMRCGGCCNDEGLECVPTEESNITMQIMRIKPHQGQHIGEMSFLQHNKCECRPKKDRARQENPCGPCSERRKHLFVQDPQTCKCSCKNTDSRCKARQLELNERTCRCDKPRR
experiment_description: competitive ELISA, coated VEGFA, competitor VEGFR2-ECD-Fc 1 nM
reported_metric: IC50 (nM)

>  <binder>
2V41-9GS (VHH, Tandem bivalent nanobody) QLQLVESGGGSVQPGGSLRLSCEVSGRTFSSYTMGWFRQAPGKEREFVVAISKGGYKYDSVSLEARFTISKDNTKNTVYLQMNSLKPEDTAVYYCAGTRAYGSSRLRLAKTYEYWGQGTQVTVSSGGGGSGGGSQLQLVESGGGSVQPGGSLRLSCEVSGRTFSSYTMGWFRQAPGKEREFVVAISKGGYKYDSVSLEARFTISKDNTKNTVYLQMNSLKPEDTAVYYCAGTRAYGSSRLRLAKTYEYWGQGTQVTVSS

>  <unit_text>
nM

>  <value_observed>
1.97

$$$$
